Origin of values: ChEMBL document CHEMBL3433997

# study_target: Hexose transporter 1 (Plasmodium falciparum)
# protocol_description: ST_JUDE_LEISH: Cytotoxicity at 2uM final concentration against transgenic Leishmania Mexicana promastigotes LmPfHT that are glucose transport deficient and complemented with the Plasmodium falciparum hexose transporter. Activity is measured by DNA content using SYBR green in vitro
# Format: functional
reported_property: inhibition (%)
Lab book: enter the figure in %, no units written.

A selection of reference data follows.
1. COc1ccc(-c2ccnc(-c3cccc(-c4ccccn4)n3)c2)cc1    24.9
2. Cc1ccc(C)c2sc(N(CCCn3ccnc3)C(=O)c3ccco3)nc12    5.62
3. COc1c(C2=CCN(CCCCNC(=O)c3ccc(-c4ccc(C#N)cc4)cc3)CC2)ccc2c1CCCC2    -0.52
4. CC[C@H](NC(=O)c1c(N)c(-c2sccc2Cl)nc2ccccc12)c1ccccc1    0.64
5. COc1cccc(Nc2nc(C)cc(NCc3ccc(-c4c(C)noc4C)cc3)n2)c1    13.4

Provide measured inhibition on Hexose transporter 1 (Plasmodium falciparum) for `COc1cc2ccccc2c(CNCCCCCCNCc2c(OC)c(OC)cc3ccccc23)c1OC` please. 3.44

Provide measured inhibition on Hexose transporter 1 (Plasmodium falciparum) for CCCNC(=O)C1Cc2cc(OC)c(OC)cc2C2(N1)C(=O)N(Cc1cccc(OC)c1)c1ccccc12 (stereo not drawn) please. 0.36

Provide measured inhibition on Hexose transporter 1 (Plasmodium falciparum) for `CCN1CCN(Cc2ccc3nc(-c4cc(C)n(Cc5cc(Cl)ccc5OCc5ccccc5)n4)[nH]c3c2)CC1` please. 3.38

Provide measured inhibition on Hexose transporter 1 (Plasmodium falciparum) for `COc1ccc(Cn2c(Nc3cccc(C(F)(F)F)c3)nc3cc(C(=O)NC4CC4)cnc32)cc1Cl` please. -0.56

Provide measured inhibition on Hexose transporter 1 (Plasmodium falciparum) for `CCOc1ccccc1CNc1nccc(NCCc2cn(C)c3ccccc23)n1` please. 3.5

Provide measured inhibition on Hexose transporter 1 (Plasmodium falciparum) for `CCN(CC)CCCN(C(=O)Nc1ccc(C#N)cc1)c1nc(-c2ccc(F)cc2)cs1` please. 2.42

Provide measured inhibition on Hexose transporter 1 (Plasmodium falciparum) for `COc1cc(-c2nc(-c3ccc([N+](=O)[O-])cc3)c(-c3ccccc3)[nH]2)cc(OC)c1O` please. 5.84

Provide measured inhibition on Hexose transporter 1 (Plasmodium falciparum) for `C[C@@H](Oc1cc(-n2cnc3ccc(OCC4CCN(S(C)(=O)=O)CC4)cc32)sc1C(N)=O)c1ccccc1C(F)(F)F` please. 9.1
